Test system: MET1 cells
Test: Cytotoxicity (resazurin cell viability) in MET1 cells
Type: cell-based, human
Conditions: MET1 cells, 48 h exposure, 1.25-320 µM; read-out: IC50 MET1 Cells 48 h
pIC50: −log10 of the molar value.

compound: O=C(O[C@@H]1Cc2c(O)cc(O)cc2O[C@@H]1c1cc(O)c(O)c(O)c1)c1cc(O)c(O)c(O)c1 [Epigallocatechin gallate, epigallocatechin gallate]
pIC50: 3.87

----------
Test system: MET1 cells
Assay: Phototoxicity assay in MET1 cells (irradiation 2.5 J/cm², resazurin)
Format: cell-based, human
Details: Homo sapiens, MET-1, light or radiation study, read-out: IC50 phototoxicity results (summary statement)
pIC50: −log10 of the molar value.

smiles-notation: c1ccc(-c2ccccn2)nc1
pIC50: < 4.00
